Where do these numbers come from? They come from ChEMBL document CHEMBL5120800.

In this section, each of the molecules is paired with its reported IC50.
tested on: A549; assay: Cytotoxicity against human A549 cells assessed as inhibition of cell growth incubated for 72 hrs by MTT assay; assay type: functional, cell-based; details: A549, 72 h

INSERT INTO assay_data (molecule, target_entity, measured_quantity, value_observed) VALUES
  ('CC(=O)O[C@H]1C(=O)[C@@]2(C)[C@H]([C@H](OC(=O)c3ccccc3)[C@]3(O)C[C@H](OC(=O)[C@H](O)[C@@H](NC(=O)c4ccccc4)c4ccccc4)C(C)=C1C3(C)C)[C@]1(OC(C)=O)CO[C@@H]1C[C@@H]2O [PACLITAXEL]', 'A549', 'IC50', '0.0675 µM');

Query: Which IC50 reading was recorded for the molecule CC(=O)O[C@]12C[C@@H](C)[C@H](OC(=O)c3ccccc3)[C@@H]1/C=C(\C)[C@H](OC(=O)c1ccccc1)CC(=O)C(C)(C)/C=C/[C@@H](C)C2=O ?
Response: > 10 µM

Query: Which IC50 reading was recorded for the molecule CC(=O)O[C@@H]1[C@H](C)/C=C/C(C)(C)C(=O)C[C@@H](OC(=O)c2ccccc2)/C(C)=C/[C@H]2[C@@H](OC(=O)c3ccccc3)[C@H](C)C[C@]12OC(C)=O [EUPHOSCOPIN C] ?
Response: > 10 µM

Query: Which IC50 reading was recorded for the molecule CC(=O)O[C@@H]1[C@H](C)/C=C/C(C)(C)C(=O)C[C@@H](OC(=O)c2cccnc2)/C(C)=C/[C@H]2[C@@H](OC(=O)c3ccccc3)[C@H](C)C[C@]12OC(C)=O ?
Response: > 10 µM
